Exercise: for every item that follows, state its recorded protein stability index.
B1: PPFIA4 (parent)
chain: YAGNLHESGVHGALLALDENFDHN

- Variants of: B1
- Run Description: protein stability index of a GFP-peptide fusion (GPS, HEK-293T) (PSI 1-6); higher = more stable;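 further: lentivirally expressed fusions sorted by FACS into six bins by GFP to DsRed ratio, PSI derived from sequencing read proportions per bin multiplied by bin number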
- Experimental Conditions: c terminus: a fixed tail appended
Answer with a number only.

Task: // fetch protein stability index given entry "D22N"
Output: 1.99

Task: For the variant "E19I" , give its reported protein stability index.
Output: 2.97

Task: Given "G3S" , respond with its protein stability index.
Output: 2.95

Task: Determine from records and report protein stability index for "H6C"
Output: 2.92

Task: Supply measured protein stability index of "H11A" in your reply.
Output: 3.06

Task: Please report protein stability index for the following variant: "G9V"
Output: 2.98

Task: Please give the documented protein stability index of "V10M"
Output: 1.79

Task: State its protein stability index: "L5V"
Output: 2.12

Task: Respond only with protein stability index recorded for "L14F"
Output: 1.81

Task: Output measured protein stability index for this item: "D22Y"
Output: 2.49

Task: In one line, give reported protein stability index of the entry "H11M" .
Output: 1.87

Task: Supply recorded protein stability index for "N24P" here.
Output: 2.39

Task: Give me measured protein stability index, please, for this variant: "E7H"
Output: 1.77

Task: Supply protein stability index value. Item: "A2Y"
Output: 3.07

Task: Note down protein stability index recorded for "L14R"
Output: 3.31

Task: Return value of protein stability index for input "D18I" , no commentary.
Output: 2.2

Task: Please list protein stability index recorded for the variant "E7Y"
Output: 1.85

Task: Retrieve protein stability index measured for "F21Y" and print it.
Output: 2.6

Task: Please report protein stability index for the following variant: "G3M"
Output: 3.55

Task: Identify the reported protein stability index for the following entry. "L17A"
Output: 3.43

Task: Give me measured protein stability index, please, for this variant: "G9W"
Output: 2.94
